# credit: PubChem BioAssay AID1963983

Tested on: 186277-243-T-J2-PDC multi-cell spheroid viability;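 also: spheroids exposed to compounds for seven days before viability reading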
Assay: Anticancer human tumor 186277-243-T-J2-PDC patient-derived colon adenocarcinoma cell line growth inhibition [PI3K]
Conditions: second compound 0.316 µM; first compound 3.16 µM; stronger effect = lower value
API: label(entry) gives MET if the entry's viability, T/C is strictly smaller than 40%; on equality or larger values it gives NOT MET.

// known answers, use as guide
compound | assayed-system | label-value
CC(C)NCC(C(=O)N1CCN(c2ncnc3c2C(C)CC3O)CC1)c1ccc(Cl)cc1 (stereo unspecified) + CC(Nc1ccc2c(c1)OCCn1cc(N3C(=O)OCC3C(F)F)nc1-2)C(N)=O | 186277-243-T-J2-PDC multi-cell spheroid viability | MET
CC1(C)CCC(CN2CCN(c3ccc(C(=O)NS(=O)(=O)c4ccc(NCC5CCOCC5)c([N+](=O)[O-])c4)c(Oc4cnc5[nH]ccc5c4)c3)CC2)=C(c2ccc(Cl)cc2)C1 + CC(Nc1ncnc2nc[nH]c12)c1cc2cccc(Cl)c2c(=O)n1-c1ccccc1 | 186277-243-T-J2-PDC multi-cell spheroid viability | NOT MET
Cn1nccc1Nc1nccc(-c2ccn(C(CO)c3ccc(Cl)c(F)c3)c(=O)c2)n1 (stereo unspecified) + Cc1nc(NC(=O)N2CCCC2C(N)=O)sc1-c1ccnc(C(C)(C)C(F)(F)F)c1 | 186277-243-T-J2-PDC multi-cell spheroid viability | MET
CC(C)NCC(C(=O)N1CCN(c2ncnc3c2C(C)CC3O)CC1)c1ccc(Cl)cc1 (stereo unspecified) + CC(Nc1ncnc2nc[nH]c12)c1cc2cccc(Cl)c2c(=O)n1-c1ccccc1 | 186277-243-T-J2-PDC multi-cell spheroid viability | NOT MET
C#Cc1c(F)ccc2cc(O)cc(-c3ncc4c(N5CC6CCC(C5)N6)nc(OCC56CCCN5CC(F)C6)nc4c3F)c12 (stereo unspecified) + COc1c(OCCCN2CCOCC2)ccc2c3n(c(=NC(=O)c4cnc(N)nc4)nc12)CCN3 | 186277-243-T-J2-PDC multi-cell spheroid viability | MET

-- ask Lab note: viability, T/C threshold 40%. Does this compound come in strictly under it? CC(Cn1ccc(-c2ccc(C#N)c(Cl)c2)n1)NC(=O)c1cc(C(C)O)[nH]n1 (stereo unspecified) + COc1c(OCCCN2CCOCC2)ccc2c3n(c(=NC(=O)c4cnc(N)nc4)nc12)CCN3
-- reply MET

-- ask Quick check: does CC1(C)CCC(Nc2ncc(C(F)(F)F)c(-c3c[nH]c4c(P(C)(C)=O)c(C#N)ccc34)n2)CN1 (stereo unspecified) + COc1c(OCCCN2CCOCC2)ccc2c3n(c(=NC(=O)c4cnc(N)nc4)nc12)CCN3 have viability, T/C under 40%?
-- reply MET
